TESTED ON: T1, soluble human CD16A (sCD16A) (human, UniProt P08637 17-203)
T1 construct: CD16A truncated just prior to the transmembrane region, expressed in HEK-293; The last seven residues come from vector pCDNA3.1; also called soluble form of human CD16A
T1 sequence (P08637 other isoform, or with tags, fused parts or gaps limits assumed): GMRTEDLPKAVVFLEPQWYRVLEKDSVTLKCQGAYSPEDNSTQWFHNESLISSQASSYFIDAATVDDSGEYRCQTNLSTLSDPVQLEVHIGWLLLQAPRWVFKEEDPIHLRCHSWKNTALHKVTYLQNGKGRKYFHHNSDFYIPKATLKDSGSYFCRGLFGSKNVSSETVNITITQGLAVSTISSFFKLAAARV
PROTOCOL NOTES: ELISA, captured sCD16A
MEASURED PARAMETER: binding result

Query hu3G8VH-24/hu3G8VL-1 (antibody, VH fused to human Cγ1 constant region) VH: QVTLRESGPALVKPTQTLTLTCTFSGFSLSTSGVGVGWIRQPPGKALEWLAHIWWDDDKRYSPSLKSRLTISKDTSKNQVVLTMTNMDPVDTATYYCAAINPAYFAYWGQGTLVTVSS light: DIVMTQSPDSLAVSLGERATINCKASQSVDFDGDSFMNWYQQKPGQPPKLLIYTTSNLESGVPDRFSGSGSGTDFTLTISSLQAEDVAVYYCQQSNEDPYTFGQGTKLEIKRTVAAPSVFIFPPSDEQLKSGTASVVCLLNNFYPREAKVQWKVDNALQSGNSQESVTEQDSKDSTYSLSSTLTLSKADYEKHKVYACEVTHQGLSSPVTKSFNRGEC yields binding result of binds

// binding result value for hu3G8VH-6/hu3G8VL-1 (antibody, VH fused to human Cγ1 constant region) VH: QVTLRESGPALVKPTQTLTLTCTFSGFSLSTSGVGVGWIRQPPGKALEWLAHIWWDDDKRYNPALKSRLTISKDTSKNQVVLTMTNMDPVDTATYYCARINPAWFDYWGQGTLVTVSS light: DIVMTQSPDSLAVSLGERATINCKASQSVDFDGDSFMNWYQQKPGQPPKLLIYTTSNLESGVPDRFSGSGSGTDFTLTISSLQAEDVAVYYCQQSNEDPYTFGQGTKLEIKRTVAAPSVFIFPPSDEQLKSGTASVVCLLNNFYPREAKVQWKVDNALQSGNSQESVTEQDSKDSTYSLSSTLTLSKADYEKHKVYACEVTHQGLSSPVTKSFNRGEC : binds
